Property: log2 fold change of degron read counts; scope: individual sequences
Target: T1, CRBN, Q96SW2;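 note: pooled lentiviral library of zinc finger degron-EGFP fusions in mCherry-positive Jurkat cells, FACS-sorted after compound exposure, with degron abundance counted by next-generation sequencing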
T1 chain: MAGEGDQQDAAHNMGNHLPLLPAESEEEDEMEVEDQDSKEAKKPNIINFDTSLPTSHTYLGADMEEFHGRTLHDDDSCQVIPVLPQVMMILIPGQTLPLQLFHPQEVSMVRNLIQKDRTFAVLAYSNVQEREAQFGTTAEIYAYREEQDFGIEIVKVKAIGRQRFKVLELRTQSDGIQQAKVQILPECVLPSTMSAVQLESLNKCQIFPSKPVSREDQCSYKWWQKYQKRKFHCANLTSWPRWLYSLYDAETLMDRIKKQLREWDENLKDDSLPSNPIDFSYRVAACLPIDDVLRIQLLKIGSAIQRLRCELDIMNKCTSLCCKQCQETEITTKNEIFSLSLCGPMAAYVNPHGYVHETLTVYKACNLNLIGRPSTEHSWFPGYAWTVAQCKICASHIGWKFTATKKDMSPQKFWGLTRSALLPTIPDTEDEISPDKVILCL
Experiment: log2 fold change of degron read counts, EGFP-low vs EGFP+ sorted cells (limma voom), compound-induced degradation; higher = more compound-induced degradation of the degron-EGFP fusion; degrons are variants of IKZF1/3 zinc finger 2; compound dose not given here
Conditions: Jurkat; 18 h; compound: compound 33 (diphenyl IMiD analogue)
The full ranking holds about 8,300 sequences; the median of “log2 fold change of degron read counts, EGFP-low vs EGFP+ sorted cells (limma voom), compound-induced degradation” is about -1.1, and the highest 2% start at about 3.2. This is one part of a sample in which the highest values are shown more often than they occur.
assay-endpoint: log2 fold change of degron read counts

item-sequence: FWCEICGARFTQKGNLLRHIKL [46F_47W_49E_50I_52G_53A_54R_55F_67L_, Q9UKT9]
assay-endpoint: log2 fold change of degron read counts
assay-value: 1.48
//
item-sequence: FYCEICGAFFTQKGNLLRHIKL [46F_47Y_49E_50I_52G_53A_54F_55F_67L_, Q9UKT9]
assay-endpoint: log2 fold change of degron read counts
assay-value: 2.4
//
item-sequence: FECEICGALFTQKGNLLRHIKL [46F_47E_49E_50I_52G_53A_54L_55F_67L_, Q9UKT9]
assay-endpoint: log2 fold change of degron read counts
assay-value: 0.784
//
item-sequence: FCCEICGAFFTQKGNLLRHIKL [46F_47C_49E_50I_52G_53A_54F_55F_67L_, Q9UKT9]
assay-endpoint: log2 fold change of degron read counts
assay-value: 1.4
//
item-sequence: FFCEICGARFTQKGNLLRHIKL [46F_47F_49E_50I_52G_53A_54R_55F_67L_, Q9UKT9]
assay-endpoint: log2 fold change of degron read counts
assay-value: 1.66
//
item-sequence: FECEICGARFTQKGNLLRHIKL [46F_47E_49E_50I_52G_53A_54R_55F_67L_, Q9UKT9]
assay-endpoint: log2 fold change of degron read counts
assay-value: 1.59
//
item-sequence: FWCEICGAYFTQKGNLLRHIKL [46F_47W_49E_50I_52G_53A_54Y_55F_67L_, Q9UKT9]
assay-endpoint: log2 fold change of degron read counts
assay-value: 1.88
